B1: MYL5 (parent)
chain: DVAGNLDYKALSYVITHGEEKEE

# Variants of: B1
# PROTOCOL NOTES: protein stability index of a GFP-peptide fusion (GPS, HEK-293T) (PSI 1-6); higher = more stable;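 note: lentivirally expressed fusions sorted by FACS into six bins by GFP to DsRed ratio, PSI derived from sequencing read proportions per bin multiplied by bin number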
# STUDY CONDITIONS: c terminus: native
Quick rule for you: protein stability index at 2 or higher means rule met, lower means rule not met.

>  <SEQUENCE INPUT>
DVAGNSDYKALSYVITHGEEKEE [L6S]

>  <LABEL VALUE>
rule not met

$$$$
>  <SEQUENCE INPUT>
PVAGNLDYKALSYVITHGEEKEE [D1P]

>  <LABEL VALUE>
rule not met

$$$$
>  <SEQUENCE INPUT>
DVAGNLDYKALSYVATHGEEKEE [I15A]

>  <LABEL VALUE>
rule met

$$$$
>  <SEQUENCE INPUT>
DVAGELDYKALSYVITHGEEKEE [N5E]

>  <LABEL VALUE>
rule met

$$$$
>  <SEQUENCE INPUT>
DVAGNLDYKALSYVLTHGEEKEE [I15L]

>  <LABEL VALUE>
rule not met

$$$$
>  <SEQUENCE INPUT>
DVAGNLDYKALSYVITPGEEKEE [H17P]

>  <LABEL VALUE>
rule not met

$$$$
>  <SEQUENCE INPUT>
DVAGNYDYKALSYVITHGEEKEE [L6Y]

>  <LABEL VALUE>
rule not met

$$$$
>  <SEQUENCE INPUT>
DVAGNLDYKALSYVITHGEECEE [K21C]

>  <LABEL VALUE>
rule met

$$$$
>  <SEQUENCE INPUT>
DVAGNLDYKALSYVIGHGEEKEE [T16G]

>  <LABEL VALUE>
rule met

$$$$
>  <SEQUENCE INPUT>
KVAGNLDYKALSYVITHGEEKEE [D1K]

>  <LABEL VALUE>
rule met

$$$$
>  <SEQUENCE INPUT>
DLAGNLDYKALSYVITHGEEKEE [V2L]

>  <LABEL VALUE>
rule not met

$$$$
>  <SEQUENCE INPUT>
DVQGNLDYKALSYVITHGEEKEE [A3Q]

>  <LABEL VALUE>
rule not met

$$$$
>  <SEQUENCE INPUT>
DVAGNLDYKALSYVFTHGEEKEE [I15F]

>  <LABEL VALUE>
rule met

$$$$
>  <SEQUENCE INPUT>
FVAGNLDYKALSYVITHGEEKEE [D1F]

>  <LABEL VALUE>
rule met

$$$$
>  <SEQUENCE INPUT>
DVAGNLDYKALSYVITHGLEKEE [E19L]

>  <LABEL VALUE>
rule met

$$$$
>  <SEQUENCE INPUT>
DVAGNLDYKALSYVITHGEEKRE [E22R]

>  <LABEL VALUE>
rule met

$$$$
>  <SEQUENCE INPUT>
DIAGNLDYKALSYVITHGEEKEE [V2I]

>  <LABEL VALUE>
rule met

$$$$
>  <SEQUENCE INPUT>
DVAGNLKYKALSYVITHGEEKEE [D7K]

>  <LABEL VALUE>
rule met

$$$$
>  <SEQUENCE INPUT>
DVAQNLDYKALSYVITHGEEKEE [G4Q]

>  <LABEL VALUE>
rule not met

$$$$
>  <SEQUENCE INPUT>
DVAGNLDYKALSYVITHTEEKEE [G18T]

>  <LABEL VALUE>
rule not met

$$$$
>  <SEQUENCE INPUT>
DVAGNLDYKALSYPITHGEEKEE [V14P]

>  <LABEL VALUE>
rule met

$$$$
>  <SEQUENCE INPUT>
DVAGGLDYKALSYVITHGEEKEE [N5G]

>  <LABEL VALUE>
rule met

$$$$
>  <SEQUENCE INPUT>
DVATNLDYKALSYVITHGEEKEE [G4T]

>  <LABEL VALUE>
rule met

$$$$
>  <SEQUENCE INPUT>
DVAGNGDYKALSYVITHGEEKEE [L6G]

>  <LABEL VALUE>
rule not met

$$$$
>  <SEQUENCE INPUT>
DVAGNDDYKALSYVITHGEEKEE [L6D]

>  <LABEL VALUE>
rule met

$$$$
>  <SEQUENCE INPUT>
DVAGNLDYKALSYVITHFEEKEE [G18F]

>  <LABEL VALUE>
rule not met

$$$$
>  <SEQUENCE INPUT>
DVAGNLMYKALSYVITHGEEKEE [D7M]

>  <LABEL VALUE>
rule met

$$$$
>  <SEQUENCE INPUT>
DMAGNLDYKALSYVITHGEEKEE [V2M]

>  <LABEL VALUE>
rule not met

$$$$
>  <SEQUENCE INPUT>
DVAGNLDYKALSYVITHGDEKEE [E19D]

>  <LABEL VALUE>
rule met

$$$$
>  <SEQUENCE INPUT>
DVAGNLDYKALSHVITHGEEKEE [Y13H]

>  <LABEL VALUE>
rule met

$$$$
>  <SEQUENCE INPUT>
DVAGNFDYKALSYVITHGEEKEE [L6F]

>  <LABEL VALUE>
rule met

$$$$
>  <SEQUENCE INPUT>
DVAGNLDYKALSYVIQHGEEKEE [T16Q]

>  <LABEL VALUE>
rule met

$$$$
>  <SEQUENCE INPUT>
DVAGNLDYKALSYVITHGEAKEE [E20A]

>  <LABEL VALUE>
rule met

$$$$
>  <SEQUENCE INPUT>
DVAGNLDYKALSYVITHGEFKEE [E20F]

>  <LABEL VALUE>
rule met

$$$$
>  <SEQUENCE INPUT>
DWAGNLDYKALSYVITHGEEKEE [V2W]

>  <LABEL VALUE>
rule met

$$$$
>  <SEQUENCE INPUT>
DVKGNLDYKALSYVITHGEEKEE [A3K]

>  <LABEL VALUE>
rule met

$$$$
>  <SEQUENCE INPUT>
DVAGNLDYKMLSYVITHGEEKEE [A10M]

>  <LABEL VALUE>
rule met

$$$$
>  <SEQUENCE INPUT>
DVAMNLDYKALSYVITHGEEKEE [G4M]

>  <LABEL VALUE>
rule not met

$$$$
>  <SEQUENCE INPUT>
DVAGNLDYKALSYVITHGEEKNE [E22N]

>  <LABEL VALUE>
rule met

$$$$
>  <SEQUENCE INPUT>
DVAGNLDYKALSYEITHGEEKEE [V14E]

>  <LABEL VALUE>
rule met

$$$$
>  <SEQUENCE INPUT>
DVAGNLDYKALSYVKTHGEEKEE [I15K]

>  <LABEL VALUE>
rule met

$$$$

Origin of values: the supplement of paper PMC10567573
